The reported measurements were obtained from PubChem BioAssay AID750.

EXPERIMENTAL_DETAILS: MT1-MMP promoter reporter activation – cell-based, luciferase luminescence, primary screen (AID 750)
RUN_CONDITIONS: HT1080 MT1-MMP promoter luciferase reporter, overnight, at 10 µM
Hit rate of the full screen: of about 86,000 compounds, about 140 (0.16%) were called active.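 How the source made its calls: active means activation factor of at least 2 for MT1-MMP transcription at 10 µM; inactive means the rest.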 Shown is part of a subset that was picked to be rich in actives.
Hi there, use one of these labels in your reply, thanks! active, inactive

CN(C)S(=O)(=O)c1ccc(NC(=O)COC(=O)c2n[nH]c3ccccc23)cc1    inactive
CCN1CCCC1Cn1cnc2c([nH]c3cc(OC)ccc32)c1=O (configuration not stated)    inactive
CCC(C)NC(=O)C1CCCN(C(=O)NC2CCCCC2)C1 (configuration not stated)    inactive
Cc1ccc(S(=O)(=O)NC(=O)COc2ccccc2C)cc1    inactive
COC(=O)C1=C(C)N=C2SC(C)C(=O)N2C1/C=C/c1ccccc1 (configuration not stated)    inactive

Problem: Test call for this compound, please: CCCc1noc2c1/C(=N\O)CCC2
Result: inactive

Problem: Hi, sorry to bother you, what did the test record for Cn1nc(C(F)(F)F)c2cc(NC(=O)OCC(C)(C)C)sc21 ?
Result: inactive

Problem: Short answer needed: outcome of this test for CCOc1ccc(S(=O)(=O)NCCSc2ccccc2)cc1 ?
Result: inactive

Problem: Please indicate how the test categorized CSc1nc2nc3c(c(=O)n2[nH]1)CCC3 .
Result: inactive

Problem: # outcome recorded in this test, key = O=C(Cc1ccc(-n2c(=O)[nH]c3ccccc3c2=O)cc1)N1CCN(c2cccc(Cl)c2)CC1
Result: inactive
